test: Selectivity index, ratio of IC50 for human L02 cells to IC50 for human HepG2 cells; format: toxicity; conditions: L02 cells and HepG2 cells, read-out: Ratio IC50
Property: selectivity ratio; scope: individual compounds

# smiles_data, selectivity ratio
measured = [
    ("C[C@H]1CCC/C=C/[C@@H]2C[C@H](O)C[C@H]2[C@H](OC(=O)CCCC(=O)OCCCOc2no[n+]([O-])c2S(=O)(=O)c2ccccc2)/C=C/C(=O)O1", 4),
    ("C[C@H]1CCC/C=C/[C@@H]2C[C@H](O)C[C@H]2[C@H](OC(=O)CCC(=O)OCCCOc2no[n+]([O-])c2S(=O)(=O)c2ccccc2)/C=C/C(=O)O1", 9),
    ("C[C@H]1CCC/C=C/[C@@H]2C[C@H](OC(=O)CCCC(=O)OCCCOc3no[n+]([O-])c3S(=O)(=O)c3ccccc3)C[C@H]2[C@H](OC(=O)CCCC(=O)OCCCOc2no[n+]([O-])c2S(=O)(=O)c2ccccc2)/C=C/C(=O)O1", 13),
]

====

Property: selectivity ratio; scope: individual molecules
test: Selectivity index, ratio of IC50 for human L02 cells to IC50 for human HepG2 cells; assay type: toxicity; details: L02 cells and HepG2 cells, read-out: Ratio IC50
endpoint_label: selectivity ratio

# smiles_data, recorded_value
measured = [
    ("C[C@H]1CCC/C=C/[C@@H]2C[C@H](O)C[C@H]2[C@H](OC(=O)CCCC(=O)OCCOc2no[n+]([O-])c2S(=O)(=O)c2ccccc2)/C=C/C(=O)O1", 12),
    ("C[C@H]1CCC/C=C/[C@@H]2C[C@H](O)C[C@H]2[C@H](OC(=O)c2ccccc2C(=O)OCCCOc2no[n+]([O-])c2S(=O)(=O)c2ccccc2)/C=C/C(=O)O1", 10),
    ("C[C@H]1CCC/C=C/[C@@H]2C[C@H](OC(=O)CCCC(=O)OCCOc3no[n+]([O-])c3S(=O)(=O)c3ccccc3)C[C@H]2[C@H](O)/C=C/C(=O)O1", 6),
    ("C[C@H]1CCC/C=C/[C@@H]2C[C@H](OC(=O)CCC(=O)OCCCOc3no[n+]([O-])c3S(=O)(=O)c3ccccc3)C[C@H]2[C@H](OC(=O)CCC(=O)OCCCOc2no[n+]([O-])c2S(=O)(=O)c2ccccc2)/C=C/C(=O)O1", 9),
    ("C[C@H]1CCC/C=C/[C@@H]2C[C@H](OC(=O)CCC(=O)O)C[C@H]2[C@H](O)/C=C/C(=O)O1", 6),
]

====

Property: selectivity ratio; scope: individual compounds
test: Selectivity index, ratio of IC50 for human L02 cells to IC50 for human HepG2 cells; type: toxicity; conditions: L02 cells and HepG2 cells, read-out: Ratio IC50

# smiles_data, selectivity ratio
rows = [
    ("C[C@H]1CCC/C=C/[C@@H]2C[C@H](O)C[C@H]2[C@H](OC(=O)CCC(=O)OCCOc2no[n+]([O-])c2S(=O)(=O)c2ccccc2)/C=C/C(=O)O1", 10),
    ("O=C(O)CCC(=O)OCCCOc1no[n+]([O-])c1S(=O)(=O)c1ccccc1", 5),
    ("C[C@H]1CCC/C=C/[C@@H]2C[C@H](OC(=O)CCC(=O)OCCOc3no[n+]([O-])c3S(=O)(=O)c3ccccc3)C[C@H]2[C@H](O)/C=C/C(=O)O1", 6),
    ("O=C(O)CCCC(=O)OCCOc1no[n+]([O-])c1S(=O)(=O)c1ccccc1", 8),
]

====

test system: HT-29; experiment: Antiproliferative activity against human HT-29 cells after 72 hrs by MTT assay; assay type: functional, cell-based; conditions: HT-29, 72 h
Property: IC50; scope: individual molecules

# smiles_data, IC50
measured = [
    ("O=C(O)CCCC(=O)OCCOc1no[n+]([O-])c1S(=O)(=O)c1ccccc1", "> 10 µM"),
    ("O=C(O)c1ccccc1C(=O)OCCOc1no[n+]([O-])c1S(=O)(=O)c1ccccc1", "> 10 µM"),
    ("O=C(O)c1ccccc1C(=O)OCCCOc1no[n+]([O-])c1S(=O)(=O)c1ccccc1", "> 10 µM"),
]

====

tested on: L02; test: Cytotoxicity against human L02 cells assessed as reduction in cell viability after 72 hrs by MTT assay; type: cell-based; conditions: L02, 72 h
pIC50: −log10 of the molar value.

# smiles_data, reading_qualifier, pIC50
data = [
    ("O=C(O)CCC(=O)OCCOc1no[n+]([O-])c1S(=O)(=O)c1ccccc1", "=", 4.44),
    ("C[C@H]1CCC/C=C/[C@@H]2C[C@H](O)C[C@H]2[C@H](O)/C=C/C(=O)O1", ">", 9.40),
    ("C[C@H]1CCC/C=C/[C@@H]2C[C@H](OC(=O)CCC(=O)OCCCOc3no[n+]([O-])c3S(=O)(=O)c3ccccc3)C[C@H]2[C@H](OC(=O)CCC(=O)OCCCOc2no[n+]([O-])c2S(=O)(=O)c2ccccc2)/C=C/C(=O)O1", "=", 5.14),
    ("O=C(O)c1ccccc1C(=O)OCCCOc1no[n+]([O-])c1S(=O)(=O)c1ccccc1", "=", 4.40),
    ("C[C@H]1CCC/C=C/[C@@H]2C[C@H](O)C[C@H]2[C@H](OC(=O)CCC(=O)OCCCOc2no[n+]([O-])c2S(=O)(=O)c2ccccc2)/C=C/C(=O)O1", "=", 5.16),
    ("C[C@H]1CCC/C=C/[C@@H]2C[C@H](OC(=O)c3ccccc3C(=O)OCCOc3no[n+]([O-])c3S(=O)(=O)c3ccccc3)C[C@H]2[C@H](O)/C=C/C(=O)O1", "=", 5.23),
    ("C[C@H]1CCC/C=C/[C@@H]2C[C@H](O)C[C@H]2[C@H](OC(=O)CCCC(=O)OCCCOc2no[n+]([O-])c2S(=O)(=O)c2ccccc2)/C=C/C(=O)O1", "=", 5.17),
    ("C[C@H]1CCC/C=C/[C@@H]2C[C@H](OC(=O)c3ccccc3C(=O)OCCCOc3no[n+]([O-])c3S(=O)(=O)c3ccccc3)C[C@H]2[C@H](OC(=O)c2ccccc2C(=O)OCCCOc2no[n+]([O-])c2S(=O)(=O)c2ccccc2)/C=C/C(=O)O1", "=", 5.01),
    ("O=C(O)CCCC(=O)OCCOc1no[n+]([O-])c1S(=O)(=O)c1ccccc1", "=", 4.49),
    ("C[C@H]1CCC/C=C/[C@@H]2C[C@H](OC(=O)CCCC(=O)OCCOc3no[n+]([O-])c3S(=O)(=O)c3ccccc3)C[C@H]2[C@H](O)/C=C/C(=O)O1", "=", 5.29),
    ("C[C@H]1CCC/C=C/[C@@H]2C[C@H](OC(=O)CCCC(=O)OCCCOc3no[n+]([O-])c3S(=O)(=O)c3ccccc3)C[C@H]2[C@H](OC(=O)CCCC(=O)OCCCOc2no[n+]([O-])c2S(=O)(=O)c2ccccc2)/C=C/C(=O)O1", "=", 5.29),
]
